Assay: amyloid nucleation score (Sup35N fusion, yeast selection) (log enrichment); library NNK2; higher = more nucleation; inactive = no reads after selection;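 note: zero at mode of non-aggregating sequences after 7 days selection at 30°C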
outcome-measure: amyloid nucleation score
Number only, please.

| substance | amyloid nucleation score |
| --- | --- |
| VKRVFGYCFIEGLSKDVFHG | 6.35 |
| SFIVQHE | 0.16 |
| ITSNSVHIGITNYYRRELDQ | 5.32 |
| LGQVTDLSILCSSDQSLMVC | -0.075 |
| FRALKMISDPSRHSVLL | -0.02 |

Give a short answer stating reported amyloid nucleation score for `GNGMNWPC` .
2.16

Give a short answer stating reported amyloid nucleation score for `GNVYHLPDCLNLTWVLKIKN` .
-0.944

Give a short answer stating reported amyloid nucleation score for `TSQLRMDGSSILMAHLKCYR` .
0.441

Give a short answer stating reported amyloid nucleation score for `FIRWSLWR` .
-0.012

Give a short answer stating reported amyloid nucleation score for `HCPVSVVTRHGLTVNDVRHY` .
-0.062

Give a short answer stating reported amyloid nucleation score for `WSRTVYGIFCKIG` .
0.208

Give a short answer stating reported amyloid nucleation score for `PPVMFLRWCVQAGSPWTNHC` .
-0.105

Give a short answer stating reported amyloid nucleation score for `MKGALWYSDKAT` .
0.102

Give a short answer stating reported amyloid nucleation score for `ICWPSTVDEGLPFYLWIYAM` .
0.23

Give a short answer stating reported amyloid nucleation score for `DDYRMVIVVT` .
-0.307
